Biological target: EGFR del19 T790M C797S protein in Ba/F3 cells (Homo sapiens, UniProt P00533, C797S/DEL746-750/T790M)
Sequence (P00533 with tags, fused parts or gaps C797S/DEL746-750/T790M limits assumed): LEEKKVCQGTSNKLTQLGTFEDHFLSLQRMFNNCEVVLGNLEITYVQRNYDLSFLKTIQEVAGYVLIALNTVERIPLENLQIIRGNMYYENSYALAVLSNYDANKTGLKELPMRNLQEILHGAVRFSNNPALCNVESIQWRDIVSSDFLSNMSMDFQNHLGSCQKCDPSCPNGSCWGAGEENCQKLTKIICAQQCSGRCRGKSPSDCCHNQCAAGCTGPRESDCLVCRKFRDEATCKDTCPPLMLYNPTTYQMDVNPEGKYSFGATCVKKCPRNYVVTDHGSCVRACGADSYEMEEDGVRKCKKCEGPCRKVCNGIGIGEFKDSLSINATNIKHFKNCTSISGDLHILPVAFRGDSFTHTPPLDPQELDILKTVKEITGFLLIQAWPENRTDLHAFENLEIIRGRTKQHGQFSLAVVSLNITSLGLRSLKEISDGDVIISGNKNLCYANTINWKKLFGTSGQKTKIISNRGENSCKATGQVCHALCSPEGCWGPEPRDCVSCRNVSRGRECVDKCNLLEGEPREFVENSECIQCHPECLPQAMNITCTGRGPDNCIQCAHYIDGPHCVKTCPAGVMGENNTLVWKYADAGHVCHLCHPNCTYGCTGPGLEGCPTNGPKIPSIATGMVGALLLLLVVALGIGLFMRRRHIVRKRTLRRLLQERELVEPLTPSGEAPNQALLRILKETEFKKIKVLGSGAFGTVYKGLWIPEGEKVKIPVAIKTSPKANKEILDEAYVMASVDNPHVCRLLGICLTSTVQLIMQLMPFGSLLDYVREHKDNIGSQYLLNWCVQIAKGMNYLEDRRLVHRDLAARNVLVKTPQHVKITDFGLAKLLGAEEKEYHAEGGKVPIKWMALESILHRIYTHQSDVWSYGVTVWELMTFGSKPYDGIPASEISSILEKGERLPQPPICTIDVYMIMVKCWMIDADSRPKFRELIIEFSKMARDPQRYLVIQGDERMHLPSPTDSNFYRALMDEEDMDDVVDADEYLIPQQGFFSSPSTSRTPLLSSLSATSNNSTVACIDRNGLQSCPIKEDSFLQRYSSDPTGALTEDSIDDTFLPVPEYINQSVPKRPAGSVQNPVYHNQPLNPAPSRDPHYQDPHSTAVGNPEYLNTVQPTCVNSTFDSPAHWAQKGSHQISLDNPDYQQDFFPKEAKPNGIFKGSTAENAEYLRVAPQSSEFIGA
Assay: pEGFR assay (AlphaScreen Surefire, EGFR Tyr1068 phosphorylation)
property_name: pIC50
When answering, recall that pIC50 equals minus log10 of the concentration in mol/L, and write that number alone.

Here are 5 molecules together with their reported answers.
# smiles_repr, pIC50
measured = [
    ("O=C(/N=c1\\[nH]c2ccccc2n1[C@H]1CC[C@@H](O)CC1)c1ccnc(-c2coc3cccnc23)c1", 8.30),
    ("O=C(/N=c1\\[nH]c2ccccc2n1[C@H]1CC[C@@H](O)CC1)c1ccnc(-c2ccccc2OC(F)F)c1", 8.15),
    ("CC(C)(O)Cn1/c(=N/C(=O)c2ccnc(-c3cccc4ccoc34)c2)[nH]c2ccccc21", 8.22),
    ("CN1CCN(c2ccc3[nH]/c(=N\\C(=O)c4cc(F)nc(-c5cnn(C)c5)c4)n(C4CCCCC4)c3c2)CC1", 9.00),
    ("Cn1cc(-c2cc(C(=O)/N=c3\\[nH]c4ccccc4n3[C@H]3C[C@H](O)C[C@H](O)C3)ccn2)cn1", 7.59),
]

# get_value(readout='pIC50', item= "COc1ccccc1-c1cc(C(=O)/N=c2\[nH]c3ccccc3n2[C@@H]2CCCC[C@H]2O)ccn1" ) 8.15

# get_value(readout='pIC50', item= "COCCCNc1cc2[nH]/c(=N\C(=O)c3ccnc(-c4cnn(C)c4)c3)n(CC(C)(C)O)c2cc1C" ) 7.07

====

Target: EGFR (mutated) 695-1022, T790M, C797S, L858R (Homo sapiens (Human), UniProt P00533, C797S/L858R/T790M)
Sequence (P00533 695-1022 T790M/C797S/L858R): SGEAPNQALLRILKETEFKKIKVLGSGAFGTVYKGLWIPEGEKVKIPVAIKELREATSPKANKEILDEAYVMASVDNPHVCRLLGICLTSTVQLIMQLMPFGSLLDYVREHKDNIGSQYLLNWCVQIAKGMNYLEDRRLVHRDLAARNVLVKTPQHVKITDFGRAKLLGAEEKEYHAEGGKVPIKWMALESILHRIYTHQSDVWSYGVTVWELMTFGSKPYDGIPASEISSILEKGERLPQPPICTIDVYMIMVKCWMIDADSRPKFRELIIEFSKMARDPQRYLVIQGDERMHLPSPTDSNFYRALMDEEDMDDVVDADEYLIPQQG
Test: Biochemical EGFR inhibition assay (TR-FRET, poly-GT substrate), EGFR T790M C797S L858R
Settings: read-out: LR_TM_CS (5 μM ATP) IC50; 5 μM ATP
Note that class boundaries on IC50 are low bracket (below 2 nM), middle bracket (2 nM to below 7 nM), high bracket (7 nM or more)

Study these solved cases before continuing.
# molecule, label_class
data = [
    ("Cn1cc(-c2cc(C(=O)/N=c3\\[nH]c4ccccc4n3[C@H]3COC[C@@H](O)C3)ccn2)cn1 [I-191]", "high bracket"),
    ("Cc1cc(C(=O)/N=c2\\[nH]c3cc(CN4CCOCC4)ccc3n2[C@H]2CC[C@@H](O)CC2)cc(-c2cnn(C)c2)n1 [I-197]", "middle bracket"),
    ("Cc1cc(C(=O)/N=c2\\[nH]c3ccc(CN4CCN(C)CC4)cc3n2CC(C)(C)O)cc(-c2cnn(C)c2)n1 [I-214]", "high bracket"),
    ("Cc1cc(C(=O)/N=c2\\[nH]c3ccc(CN4CCOCC4)cc3n2CC(C)(C)O)cc(-c2cnn(C)c2)n1 [I-213]", "high bracket"),
]

Could you place Cc1c(-c2cc(C(=O)/N=c3\[nH]c4ccccc4n3CC(C)(C)O)ccn2)cnn1C [I-017] in its proper category? Many thanks. middle bracket

Could you place Cc1cccc(-c2cc(C(=O)/N=c3\[nH]c4ccccc4n3[C@H]3CC[C@@H](O)CC3)ccn2)c1 [I-161] in its proper category? Many thanks. middle bracket

Could you place CC(=O)N1CCC(c2ccc3c(c2)[nH]/c(=N\C(=O)c2ccnc(-c4cnn(C)c4)c2)n3C2CCCC2)CC1 [I-008] in its proper category? Many thanks. low bracket

Could you place O=C(/N=c1\[nH]c2ccccc2n1[C@H]1CC[C@@H](O)CC1)c1ccnc(-c2ccncc2)c1 [I-176] in its proper category? Many thanks. middle bracket

Could you place Cn1cc(-c2cc(C(=O)/N=c3\[nH]c4ccccc4n3C3CCCCC3)ccn2)cn1 [I-015] in its proper category? Many thanks. low bracket

Could you place O=C(/N=c1\[nH]c2ccccc2n1[C@H]1CC[C@@H](O)CC1)c1ccnc(-c2ccccc2OC(F)F)c1 [I-163] in its proper category? Many thanks. high bracket

Could you place O=C(/N=c1\[nH]c2ccccc2n1[C@H]1CC[C@@H](O)CC1)c1ccnc(-c2cccc(F)c2)c1 [I-185] in its proper category? Many thanks. high bracket

====

Each item that follows carries a reported IC50.
Target: EGFR wt (Homo sapiens (Human), UniProt P00533)
Sequence (P00533 25-1210): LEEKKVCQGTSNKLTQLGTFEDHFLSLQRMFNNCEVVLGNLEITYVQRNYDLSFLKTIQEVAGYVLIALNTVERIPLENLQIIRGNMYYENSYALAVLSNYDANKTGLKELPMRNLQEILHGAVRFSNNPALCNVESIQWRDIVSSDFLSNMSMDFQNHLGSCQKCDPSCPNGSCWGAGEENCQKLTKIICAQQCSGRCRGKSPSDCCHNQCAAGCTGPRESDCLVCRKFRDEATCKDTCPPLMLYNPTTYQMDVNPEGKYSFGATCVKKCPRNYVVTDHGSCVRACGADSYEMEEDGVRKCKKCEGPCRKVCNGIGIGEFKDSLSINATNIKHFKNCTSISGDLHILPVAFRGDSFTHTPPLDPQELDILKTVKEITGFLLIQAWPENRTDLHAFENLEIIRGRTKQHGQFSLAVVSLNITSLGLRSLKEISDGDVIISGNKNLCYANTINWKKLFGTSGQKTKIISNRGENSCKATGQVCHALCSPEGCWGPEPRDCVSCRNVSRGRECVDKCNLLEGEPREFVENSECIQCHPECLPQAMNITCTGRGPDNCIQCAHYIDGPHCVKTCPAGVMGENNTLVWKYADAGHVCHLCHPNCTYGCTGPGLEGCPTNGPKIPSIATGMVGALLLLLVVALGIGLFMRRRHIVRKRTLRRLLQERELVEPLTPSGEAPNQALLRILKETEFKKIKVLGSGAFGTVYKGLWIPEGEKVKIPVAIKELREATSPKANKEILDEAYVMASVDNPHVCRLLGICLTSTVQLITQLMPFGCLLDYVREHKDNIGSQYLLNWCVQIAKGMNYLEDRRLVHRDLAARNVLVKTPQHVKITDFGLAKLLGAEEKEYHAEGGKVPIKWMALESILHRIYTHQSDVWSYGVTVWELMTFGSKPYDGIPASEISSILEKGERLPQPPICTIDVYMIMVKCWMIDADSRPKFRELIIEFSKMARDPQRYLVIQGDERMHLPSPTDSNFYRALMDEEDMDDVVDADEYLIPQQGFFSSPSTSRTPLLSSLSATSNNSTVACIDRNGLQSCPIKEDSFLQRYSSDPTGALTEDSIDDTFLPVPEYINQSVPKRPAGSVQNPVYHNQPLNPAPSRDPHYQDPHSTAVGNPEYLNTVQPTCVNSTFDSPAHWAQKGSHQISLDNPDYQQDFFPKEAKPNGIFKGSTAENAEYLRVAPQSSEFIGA
Assay: Biochemical EGFR inhibition assay (TR-FRET, poly-GT substrate), EGFR wt
Details: read-out: wt (5 μM ATP) IC50; 5 μM ATP
Reply with just the number (in nM).

# get_value(readout='IC50', item= "O=C(/N=c1\[nH]c2ccccc2n1[C@H]1CC[C@@H](O)CC1)c1ccnc(-c2ccncc2)c1" ) 293

# get_value(readout='IC50', item= "Cc1cc(C(=O)/N=c2\[nH]c3cc(CN4CCN(C)CC4)ccc3n2[C@H]2CCC[C@H](O)C2)cc(-c2cnn(C)c2)n1" ) 7470

# get_value(readout='IC50', item= "Cc1cccc(-c2cc(C(=O)/N=c3\[nH]c4ccccc4n3[C@H]3CC[C@@H](O)CC3)ccn2)c1" ) 205

# get_value(readout='IC50', item= "Cc1cc(C(=O)/N=c2\[nH]c3ccccc3n2[C@H]2CC[C@@H](O)CC2)cc(-c2cnn(C)c2)n1" ) 2180

# get_value(readout='IC50', item= "Cc1cc(C(=O)/N=c2\[nH]c3ccc(CN4CCOCC4)cc3n2[C@H]2CC[C@@H](O)CC2)cc(-c2cnn(C)c2)n1" ) 2020

# get_value(readout='IC50', item= "CC(=O)N1CCC(c2ccc3c(c2)[nH]/c(=N\C(=O)c2cc(C#N)nc(-c4cnn(C)c4)c2)n3[C@H]2CC[C@@H](O)CC2)CC1" ) 173

====

Target: EGFR (d746-750 T790M C797S) (Homo sapiens (Human), UniProt P00533, C797S/DEL746-750/T790M)
Sequence (P00533 other isoform, or with tags, fused parts or gaps T790M/C797S/del 1-694/del 746-750 limits assumed): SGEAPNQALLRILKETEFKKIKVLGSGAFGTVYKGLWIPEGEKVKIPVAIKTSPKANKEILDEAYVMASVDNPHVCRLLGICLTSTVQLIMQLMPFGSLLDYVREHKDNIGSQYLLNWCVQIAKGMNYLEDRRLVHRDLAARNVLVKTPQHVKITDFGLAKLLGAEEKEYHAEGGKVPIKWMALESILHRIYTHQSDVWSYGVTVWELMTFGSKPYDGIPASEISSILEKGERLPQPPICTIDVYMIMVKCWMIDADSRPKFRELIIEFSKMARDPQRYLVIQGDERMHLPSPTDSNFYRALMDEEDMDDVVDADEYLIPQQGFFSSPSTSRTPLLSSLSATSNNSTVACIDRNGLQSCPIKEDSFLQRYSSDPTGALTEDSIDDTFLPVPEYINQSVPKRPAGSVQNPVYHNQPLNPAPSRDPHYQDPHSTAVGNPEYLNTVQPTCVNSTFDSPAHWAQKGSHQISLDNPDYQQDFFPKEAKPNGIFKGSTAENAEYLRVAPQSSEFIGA
Experiment: Biochemical EGFR inhibition assay (TR-FRET, poly-GT substrate), EGFR d746-750 T790M C797S
Settings: 100 μM ATP
Each item that follows carries a reported pIC50.
When answering, recall that pIC50 equals minus log10 of the concentration in mol/L, and write that number alone.

Here are 5 molecules together with their reported answers.
# molecule, pIC50
rows = [
    ("CCCn1/c(=N/C(=O)c2ccnc(-c3cnn(C)c3)c2)[nH]c2ccccc21 [I-014]", 7.31),
    ("CN1CCC(c2ccc3c(c2)[nH]/c(=N\\C(=O)c2ccnc(-n4cnc5cccc(F)c54)c2)n3CC(C)(C)O)CC1 [I-030]", 8.47),
    ("CN1CCC(c2ccc3c(c2)[nH]/c(=N\\C(=O)c2ccnc(-c4cnn(C)c4)c2)n3C2CCCC2)CC1 [I-010]", 8.54),
    ("O=C(/N=c1\\[nH]c2ccccc2n1C1CCCC1)c1ccnc(-c2cccnc2)c1 [I-002]", 8.34),
    ("Cc1c(-c2cc(C(=O)/N=c3\\[nH]c4cc(N5CCN(C)CC5)ccc4n3CC(C)(C)O)ccn2)cnn1C [I-025]", 7.55),
]

# get_value(readout='pIC50', item= Cn1cc(-c2cc(C(=O)/N=c3\[nH]c4ccccc4n3CCC(C)(C)O)ccn2)cn1 [I-037] ) 7.85

# get_value(readout='pIC50', item= Cc1c(-c2cc(C(=O)/N=c3\[nH]c4ccccc4n3CC(C)(C)O)ccn2)cnn1C [I-017] ) 7.85

# get_value(readout='pIC50', item= CC(C)(O)Cn1/c(=N/C(=O)c2ccnc(-n3cnc4ccccc43)c2)[nH]c2ccccc21 [I-039] ) 7.44

====

Biological target: EGFR del19 T790M C797S protein in Ba/F3 cells (Homo sapiens, UniProt P00533, C797S/DEL746-750/T790M)
Assay: pEGFR assay (AlphaScreen Surefire, EGFR Tyr1068 phosphorylation)
Format: cell-based
property_name: log10 IC50 (log10 of the value in nM)
Scale: log10; quantity: IC50; unit before log: nM

# get_value(readout='log10 IC50', item= COCCN(C)c1ccc2c(c1)[nH]/c(=N\C(=O)c1ccnc(-c3cccnc3)c1)n2CC(C)(C)O [I-065] ) 1.48

====

Biological target: EGFR wt (Homo sapiens (Human))
Assay: Biochemical EGFR inhibition assay (TR-FRET, poly-GT substrate), EGFR wt
Conditions: read-out: wt (5 μM ATP) IC50; 5 μM ATP
Method: Biochemical EGFR Inhibition Assays Initially, the inhibitory effect of compounds according to the invention is measured in biochemical assays which measure the phosphorylation activity of EGFR enzyme forms on poly-GT substrate in the presence of different concentrations of ATP (5 μM and 100 μM final assay concentration). […] These biochemical EGFR enzyme form compound dose-response assays quantify the kinase activity via phosphorylation of a tagged poly-GT substrate. […]
property_name: pIC50
When answering, recall that pIC50 equals minus log10 of the concentration in mol/L, and write that number alone.

Here are 5 molecules together with their reported answers.
# smiles_repr, target_entity, property_name, test_value
rows = [
    ("Cn1cc(-c2cc(C(=O)/N=c3\\[nH]c4ccccc4n3[C@H]3CCC[C@H](O)C3)cc(C#N)n2)cn1", "EGFR wt (Homo sapiens (Human))", "pIC50", 6.18),
    ("CC(C)Cn1/c(=N/C(=O)c2ccnc(-c3cnn(C)c3)c2)[nH]c2ccccc21", "EGFR wt (Homo sapiens (Human))", "pIC50", 6.39),
    ("COc1cc(F)ccc1-c1cc(C(=O)/N=c2\\[nH]c3ccccc3n2[C@H]2CC[C@@H](O)CC2)ccn1", "EGFR wt (Homo sapiens (Human))", "pIC50", 7.09),
    ("COc1c(F)cccc1-c1cc(C(=O)/N=c2\\[nH]c3ccccc3n2[C@H]2CC[C@@H](O)CC2)ccn1", "EGFR wt (Homo sapiens (Human))", "pIC50", 6.25),
    ("Cn1cc(-c2cc(C(=O)/N=c3\\[nH]c4ccccc4n3[C@H]3CC[C@H](O)CC3)ccn2)cn1", "EGFR wt (Homo sapiens (Human))", "pIC50", 6.39),
]

# get_value(readout='pIC50', item= "Cc1c(-c2cc(C(=O)/N=c3\[nH]c4ccccc4n3CC(C)(C)O)ccn2)cnn1C" ) 5.73
